Please go through the items and note down their cytotoxicity at 10 µM.
# procedure_details: Toxicity liver stage against HepG2, at 10uM
# Type: cell-based
# Parameters: test concentration 10 uM, cell line HepG2-A16-CD81EGFP
# experimental_parameters: human, HepG2-A16-CD81EGFP cells; read-out: INHIBITION
Answers are plain numbers, in %.

compound | cytotoxicity at 10 µM [%]
CCCn1nc(C)c(CNC(=O)c2snnc2C)c1C | -15.5
Cc1ccc(CN2CC[C@H]3C[C@H](C(=O)N(C)C)O[C@H]3C2)cc1 | 1.94
Cc1nc(-c2nnc[nH]2)sc1C(=O)N1CCCC1CC(C)(C)C (stereo not given) | 12.1

Hi! Can you tell me cytotoxicity at 10 µM for each of these compounds?
1. Cc1nc(N2CCOCC2)nc2c1CCN(Cc1cccnc1)CC2
2. CC(=O)N(Cc1ncc(C(C)C)o1)C1CCN(Cc2ccno2)C1 (stereo not given)

Ans.
-0.368
-11.1
